measured on: FGFR1 (UniProt P11362)
Sequence (P11362 whole entry, looked up): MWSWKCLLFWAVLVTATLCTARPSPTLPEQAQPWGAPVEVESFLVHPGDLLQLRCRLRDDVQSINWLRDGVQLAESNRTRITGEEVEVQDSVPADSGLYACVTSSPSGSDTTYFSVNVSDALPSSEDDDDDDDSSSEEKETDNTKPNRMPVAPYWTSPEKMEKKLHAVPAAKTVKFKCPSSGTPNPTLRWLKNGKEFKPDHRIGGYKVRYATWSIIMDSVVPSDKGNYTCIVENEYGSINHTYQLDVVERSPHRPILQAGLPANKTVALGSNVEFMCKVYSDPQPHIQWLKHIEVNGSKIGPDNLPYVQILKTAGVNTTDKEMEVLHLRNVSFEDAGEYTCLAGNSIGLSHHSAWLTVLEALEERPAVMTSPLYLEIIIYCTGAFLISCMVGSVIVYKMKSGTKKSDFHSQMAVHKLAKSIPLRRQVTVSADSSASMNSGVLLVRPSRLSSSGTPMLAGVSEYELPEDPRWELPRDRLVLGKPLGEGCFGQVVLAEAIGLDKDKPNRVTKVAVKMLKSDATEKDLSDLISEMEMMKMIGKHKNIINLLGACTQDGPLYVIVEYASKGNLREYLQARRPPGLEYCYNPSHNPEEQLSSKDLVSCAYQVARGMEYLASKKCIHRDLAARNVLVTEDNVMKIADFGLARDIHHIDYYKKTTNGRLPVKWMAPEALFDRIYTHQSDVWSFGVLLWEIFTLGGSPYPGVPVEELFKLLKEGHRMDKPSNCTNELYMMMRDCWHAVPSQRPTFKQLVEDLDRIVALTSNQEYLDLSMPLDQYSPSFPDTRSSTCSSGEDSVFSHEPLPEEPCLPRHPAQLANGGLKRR
test method notes: phosphorylation enrichment, bacterial display (enrichment ratio); higher = better substrate or ligand; peptides without Tyr show the background
Record Y whenever phosphorylation enrichment is at 0.5 or higher; record N when lower.

// query Assess whether reported phosphorylation enrichment for CRPPYYHRNCM [HGD_Y334_F329C] sits at 0.5 or higher.
// result Y

====

Test system: c-Abl (mouse)
test method notes: phosphorylation enrichment, bacterial display (enrichment ratio); higher = better substrate or ligand; peptides without Tyr show the background
Please provide measured phosphorylation enrichment for the entries that follow.
Numbers only.

NFADPYRQLQF [CTNND2_Y503_YF] ... 0.654
MEVGQYIFVKC [CYBB_Y324] ... 1.01
SESSFYKSLNL [NGEF_Y289_A286S_YF] ... 0.853
HNVAIYEGYAL [ACTC1_Y168_P166A] ... 3.44
RVKTPYSLKRW [BMPR2_Y979] ... 0.944

State recorded phosphorylation enrichment for all listed sequences.
1. QQLDEYQELLD [LMNA_Y359]
2. QSQQAYQEAFE [YWHAZ_Y149]
3. KFEDVYVGICL [B3GALNT1_Y269]
4. HHTDEYEFDEL [TGM1_Y134_YF]
5. TAPYNYSYIFK [RAB14_Y8]
6. MVIPNYSSRTE [UROC1_Y185]

// result
1.01
1.71
1.02
0.96
0.717
0.438

State recorded phosphorylation enrichment for all listed sequences.
1. VVTFSYKPPGN [RBL2_Y544]
2. EMFNPCYGLFE [NEDD4L_Y679_Y679C]
3. AAAAMYTFLPD [MYORG_Y36]
4. IGSQRYKLGVR [RB1_Y446]
5. APGDAYGDAGY [SYP_Y250]
6. ERDYTYEELLN [EIF2S2_Y176]
7. QYNIQYSSSAA [ERBB2IP_Y981]
8. EMQAAYQKVVA [HBD_Y131_Q126E]

// result
1. 0.673
2. 1.03
3. 1
4. 0.41
5. 0.616
6. 0.67
7. 0.408
8. 0.421

State recorded phosphorylation enrichment for all listed sequences.
1. KILTHYKQPHT [KMT2D_Y5349_R5351Q]
2. FGHTFYNQAIM [MCCC2_Y196_R193H]
3. DYDHSYYFIAT [ESD_Y262_G257D]
4. TLQTMYGCDVG [HLA-B_Y123_S121T]
5. CDTKLYTSVPN [DNTTIP2_Y427_A430V]

// result
1: 1.18; 2: 0.527; 3: 0.877; 4: 0.849; 5: 0.755

State recorded phosphorylation enrichment for all listed sequences.
1. ETDPRYFDEEF [AKT1_Y437_T435P]
2. GRVYVYRLSEQ [ITGAE_Y551]
3. VLDSHYPEDEV [C1QBP_Y188_C186S]
4. PLFKICVAELI [MRPL28_Y230_Y230C]
5. KDFNKYVAYIE [KDM4B_Y31]
6. HHIDFYKETTN [FGFR1_Y654_K656E_YF]

// result
0.886
0.683
0.746
0.718
0.483
0.575

====

measured on: FGFR3 (UniProt P22607)
Sequence (P22607 whole entry, looked up): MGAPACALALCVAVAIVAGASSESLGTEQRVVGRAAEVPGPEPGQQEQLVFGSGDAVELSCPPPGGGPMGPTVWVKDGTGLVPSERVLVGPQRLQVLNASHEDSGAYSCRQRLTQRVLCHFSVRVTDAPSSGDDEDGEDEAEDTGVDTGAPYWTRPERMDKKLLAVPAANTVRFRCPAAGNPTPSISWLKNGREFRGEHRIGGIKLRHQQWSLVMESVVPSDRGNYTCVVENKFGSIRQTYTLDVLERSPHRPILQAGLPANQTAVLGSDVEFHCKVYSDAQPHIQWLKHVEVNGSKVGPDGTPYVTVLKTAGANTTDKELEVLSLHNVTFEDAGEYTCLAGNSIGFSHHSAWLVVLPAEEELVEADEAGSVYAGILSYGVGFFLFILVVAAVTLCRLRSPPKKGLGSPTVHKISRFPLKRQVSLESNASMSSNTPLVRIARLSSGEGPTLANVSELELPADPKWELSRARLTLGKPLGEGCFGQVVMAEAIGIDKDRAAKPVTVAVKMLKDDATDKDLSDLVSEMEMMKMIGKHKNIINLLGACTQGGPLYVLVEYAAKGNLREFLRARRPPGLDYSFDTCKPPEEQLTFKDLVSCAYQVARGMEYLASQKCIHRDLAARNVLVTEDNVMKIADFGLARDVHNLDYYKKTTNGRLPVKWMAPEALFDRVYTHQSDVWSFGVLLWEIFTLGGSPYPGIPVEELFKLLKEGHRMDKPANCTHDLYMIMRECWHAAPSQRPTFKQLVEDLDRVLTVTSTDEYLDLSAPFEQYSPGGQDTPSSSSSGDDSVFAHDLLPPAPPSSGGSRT
test method notes: phosphorylation enrichment, bacterial display (enrichment ratio); higher = better substrate or ligand; peptides without Tyr show the background
Please provide measured phosphorylation enrichment for the entries that follow.

Consider the reported phosphorylation enrichment for these sequences:
VDSLRYIYPKL [EIF2B3_Y92_A87V] ... 0.655
FVTSMYNEILI [TRPV1_Y310_M315I] ... 0.903

State recorded phosphorylation enrichment for all listed sequences.
1. PLAVPYLDKPP [JMJD7_Y31]
2. MAPQMYEFHLP [NCAPD2_Y6]
3. FRARAYSFRGP [CHGA_Y381_G382S]
4. FSALDYKIFFF [WDPCP_Y210_L205F_YF]
5. LTFHMYADPNI [SOS1_Y618_F623I_YF]

// result
1. 0.769
2. 0.719
3. 0.534
4. 0.981
5. 2.09

====

Test system: Fer (mouse)
test method notes: phosphorylation enrichment, bacterial display (enrichment ratio); higher = better substrate or ligand; peptides without Tyr show the background
Please provide measured phosphorylation enrichment for the entries that follow.
One number for each entry.

Consider the reported phosphorylation enrichment for these sequences:
EWQQTYTFDSG [JUP_Y20_YF] ... 0.425
HKDNNYISMWF [PAPOLG_Y432_V433I] ... 1.14
MSRDVYSTDCY [NTRK2_Y702_Y706C] ... 0.631

State recorded phosphorylation enrichment for all listed sequences.
1. KDFNKYVAYIE [KDM4B_Y31]
2. RPASQYPHQVP [ADAM12_Y895_P893S]

// result
1. 0.359
2. 0.464

State recorded phosphorylation enrichment for all listed sequences.
1. TLKDVCDDGKF [RPS6KA3_Y483_Y483C_YF]
2. AGITAYQSCLQ [ADGRA2_Y377]

// result
1: 0.523; 2: 0.63

====

measured on: EPHB1 (UniProt P54762)
Sequence (P54762 whole entry, looked up): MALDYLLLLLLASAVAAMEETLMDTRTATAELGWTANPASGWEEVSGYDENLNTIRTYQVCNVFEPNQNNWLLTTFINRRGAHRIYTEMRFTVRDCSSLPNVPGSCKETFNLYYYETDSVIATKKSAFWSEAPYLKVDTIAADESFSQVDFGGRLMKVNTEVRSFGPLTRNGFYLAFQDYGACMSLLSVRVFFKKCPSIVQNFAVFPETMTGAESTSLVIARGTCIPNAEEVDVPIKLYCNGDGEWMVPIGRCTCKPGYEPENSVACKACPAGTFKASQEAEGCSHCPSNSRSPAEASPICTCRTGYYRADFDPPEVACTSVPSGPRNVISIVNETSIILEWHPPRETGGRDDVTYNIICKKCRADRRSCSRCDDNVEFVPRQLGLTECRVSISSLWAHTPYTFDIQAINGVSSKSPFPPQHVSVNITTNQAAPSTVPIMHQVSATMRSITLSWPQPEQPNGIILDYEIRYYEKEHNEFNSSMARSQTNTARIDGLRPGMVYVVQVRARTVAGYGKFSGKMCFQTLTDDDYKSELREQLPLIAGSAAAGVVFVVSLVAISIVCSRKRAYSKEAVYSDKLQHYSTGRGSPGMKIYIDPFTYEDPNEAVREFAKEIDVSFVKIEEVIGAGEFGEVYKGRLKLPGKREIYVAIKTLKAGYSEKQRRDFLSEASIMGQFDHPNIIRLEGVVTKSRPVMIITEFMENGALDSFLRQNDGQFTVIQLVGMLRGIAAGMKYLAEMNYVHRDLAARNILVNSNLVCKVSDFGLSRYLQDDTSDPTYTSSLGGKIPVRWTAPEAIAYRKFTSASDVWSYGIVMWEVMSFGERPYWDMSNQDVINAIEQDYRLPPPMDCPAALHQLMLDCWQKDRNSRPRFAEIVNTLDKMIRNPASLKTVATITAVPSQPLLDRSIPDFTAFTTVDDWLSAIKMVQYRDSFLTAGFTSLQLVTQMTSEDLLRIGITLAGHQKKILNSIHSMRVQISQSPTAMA
test method notes: phosphorylation enrichment, bacterial display (enrichment ratio); higher = better substrate or ligand; peptides without Tyr show the background
reported metric: phosphorylation enrichment
Numbers only.

Consider the reported phosphorylation enrichment for these sequences:
FRDALYKSMVD [PHEX_Y250_F252S_YF] ... 0.608
DFPGNYSGFDD [POLR1C_Y33_YF] ... 0.927
CTTIHYNFMFN [TP53_Y234_C238F_YF] ... 0.786
GKFFQYDTWNQ [IGF2_Y116_K120N] ... 0.545

State recorded phosphorylation enrichment for all listed sequences.
1. MNLLGYRHVRS [CHST4_Y359]
2. QDLFLYQTHSE [PKHD1_Y255]
3. SGGGLYRDMGA [CBX8_Y321]

// result
[0.423, 0.887, 0.53]

====

measured on: c-Src SH2
test method notes: SH2 binding enrichment of the phosphorylated peptide, bacterial display (enrichment ratio); higher = better substrate or ligand; peptides without Tyr show the background
reported metric: SH2 binding enrichment
Answers are plain numbers.

IATAIYSGDKI [UGGT2_Y823] ... 0.393
EWQQTYTFDSG [JUP_Y20_YF] ... 0.677
SQQTYCRVSNM [ABCD1_Y181_Y181C] ... 1.01
AKQVGYENAGT [PC_Y304] ... 1.19
KMKGDYYCYLA [YWHAG_Y130_R132C] ... 0.837
KPMDTYFDSTR [DYNC2H1_Y2230_YF] ... 0.472
PPAPRYHHSAV [LZTR1_Y119] ... 1.07
LGIDRYHAIVY [NPSR1_Y147_S143G] ... 5.09

State recorded SH2 binding enrichment for all listed sequences.
1. IMICAYLLHRG [PTEN_Y138_V133I]
2. QLAPQYTYTQG [FLNA_Y1761_A1764T]
3. VDTAMYATMQR [TPO_Y55]
4. SSNLYYRWLTA [CNGA3_Y169]
5. KPPFSYNALIM [FOXG1_Y186]
6. NRLNDYIFSFD [RARS1_Y516]

// result
0.695
1.34
1.55
0.545
0.403
0.506

====

measured on: c-Src SH2
test method notes: SH2 binding enrichment of the phosphorylated peptide, bacterial display (enrichment ratio); higher = better substrate or ligand; peptides without Tyr show the background
Please provide measured SH2 binding enrichment for the entries that follow.
Give bare numbers.

RIVRKYKKVRF [F8_Y442_G439V] ... 0.477

State recorded SH2 binding enrichment for all listed sequences.
1. GRVYVYRLSEQ [ITGAE_Y551]
2. QMQAAYQKAVA [HBD_Y131_V134A]
3. SCPANYFAFKI [FAM3D_Y65_P60S]
4. EEQKRYFNAMK [SCN5A_Y1494_K1493R_YF]
5. CTIIHYNYMCN [TP53_Y234_T231I]
6. GRPMDYQVSIT [OTOF_Y254]

// result
[1.16, 0.42, 0.823, 0.541, 2.11, 0.456]

====

measured on: FGFR1 (UniProt P11362)
test method notes: phosphorylation enrichment, bacterial display (enrichment ratio); higher = better substrate or ligand; peptides without Tyr show the background
reported metric: phosphorylation enrichment
Answers are plain numbers.

Consider the reported phosphorylation enrichment for these sequences:
VSSPKYGSNDE [TMCC2_Y473_D476N] ... 0.406
IMVFVYCRVFQ [ADRB2_Y219_S220C] ... 0.841

State recorded phosphorylation enrichment for all listed sequences.
1. SHNELYYEEAE [VANGL1_Y344]
2. EKKDVYKTGEQ [CFH_Y1008_A1010T]
3. LTFHMYADPNI [SOS1_Y618_F623I_YF]
4. RAIGFYSATSK [FAM120A_Y328_YF]
5. IEEGTYGVAYR [CDK11B_Y449_V452A]
6. QRPGLYDRPGA [HNRNPH2_Y210_P209L]

// result
1. 1.05
2. 0.478
3. 1.35
4. 0.545
5. 0.494
6. 0.651

State recorded phosphorylation enrichment for all listed sequences.
1. GRPMDYHVSIT [OTOF_Y254_Q255H]
2. ADYYDYGRGLS [KHDRBS3_Y304_H306R]
3. RLCQDYDIIGP [ANK1_Y1073_T1075I]
4. VEDQFYCVDCF [FHL1_Y208_YF]
5. PLDAEYFTLQI [TP53_Y327_G325A]

// result
1. 0.453
2. 17.9
3. 2.35
4. 0.703
5. 8.68
